assay.notes: Quantitative High-Throughput drug screen in 47 multiple myeloma cell lines against the NCATS MIPE library collection: VP6_DJ cell viability assay (AID 1919867); note: nearly all actives have a fitted effect of over 40% in size
condition.summary: ATP luminescence, 48 h; series mostly up to 45.8 µM
Records with an inconclusive call do not appear. Activity calls are given as the source filed them. Calls come from the whole dose curve; as a rule, active = well fitted cell-killing curve with a large enough effect; inconclusive = small, poorly fitted or top-dose-only effect, or effect the other way; inactive = no such curve, though single readings can be large or run the other way.
Labels: 1 for active, 0 for inactive

• COCCOc1nc(-c2ccc(Cl)c(Cl)c2)n(-c2ccc(NC(=O)CCl)cc2)n1 = 1
• O=C(O)c1c(Cl)c(Cl)c(Cl)c(Cl)c1-c1c2cc(I)c(=O)c(I)c-2oc2c(I)c(O)c(I)cc12 = 1
• O=C1NC(=O)C(=Cc2ccc(-c3ccc(F)cc3)o2)S1 = 1
• CCC(=O)O[C@]1(C(=O)CO)CC[C@H]2[C@@H]3CCC4=CC(=O)CC[C@]4(C)[C@@H]3CC[C@@]21C = 1
• NC(=O)c1ccc2nc(-c3ccc(Oc4ccc(Cl)cc4)cc3)[nH]c2c1 = 1
• CN(C[C@@H]1COCCO1)S(=O)(=O)Nc1ccc2ccc3ncc(-c4cnn(C)c4)cc3c(=O)c2c1 = 1
• O=c1cc(N2CCOCC2)oc2c(-c3cccc4c3sc3ccccc34)cccc12 = 1
• Clc1ccc(-c2nc3sccn3c2C=NOCc2ccc(Cl)c(Cl)c2)cc1 = 0
• COc1cccc2c1CCCC2CCCN1CCN(C2CCCCC2)CC1 (centres undefined) = 1
• N[C@H](CSC(c1ccccc1)(c1ccccc1)c1ccccc1)C(=O)O = 1
• N#CC1(c2ccc(NC(=O)c3cccnc3NCc3ccncc3)cc2)CCCC1 = 1
• CC(=O)O[C@]1(C(C)=O)CC[C@@H]2[C@@H]3C[C@H](C)C4=CC(=O)CC[C@]4(C)[C@H]3CC[C@@]21C = 1
• O=c1c(-c2ccc(O)cc2)coc2cc(OC3O[C@H](CO)[C@H](O)[C@H](O)[C@H]3O)cc(O)c12 (some centres undefined) = 1
• CC1(C)CCC(CN2CCN(c3ccc(C(=O)NS(=O)(=O)c4ccc(NCC5CCOCC5)c([N+](=O)[O-])c4)c(Oc4cnc5[nH]ccc5c4)c3)CC2)=C(c2ccc(Cl)cc2)C1 = 1
• COc1cc2ncnc(-n3nc(-c4ccccn4)nc3N)c2cc1OC = 1
• Oc1ccc(C2CCN(c3ccnc4ccccc34)CC2)cc1O = 1
• COc1ccc(-c2cc(=O)c3c(O)cc(O)cc3o2)cc1O = 1
• CC(=O)Nc1ccc([C@H](C)C(=O)Nc2ncc(C(C)C)s2)cc1 = 1
• CC(=Cc1ccccc1)C=C1SC(=S)N(CC(=O)O)C1=O = 0

###

target.desc: Cytochrome P450 2D6 (Homo sapiens) (UniProt P10635)
Sequence (P10635 whole entry, looked up): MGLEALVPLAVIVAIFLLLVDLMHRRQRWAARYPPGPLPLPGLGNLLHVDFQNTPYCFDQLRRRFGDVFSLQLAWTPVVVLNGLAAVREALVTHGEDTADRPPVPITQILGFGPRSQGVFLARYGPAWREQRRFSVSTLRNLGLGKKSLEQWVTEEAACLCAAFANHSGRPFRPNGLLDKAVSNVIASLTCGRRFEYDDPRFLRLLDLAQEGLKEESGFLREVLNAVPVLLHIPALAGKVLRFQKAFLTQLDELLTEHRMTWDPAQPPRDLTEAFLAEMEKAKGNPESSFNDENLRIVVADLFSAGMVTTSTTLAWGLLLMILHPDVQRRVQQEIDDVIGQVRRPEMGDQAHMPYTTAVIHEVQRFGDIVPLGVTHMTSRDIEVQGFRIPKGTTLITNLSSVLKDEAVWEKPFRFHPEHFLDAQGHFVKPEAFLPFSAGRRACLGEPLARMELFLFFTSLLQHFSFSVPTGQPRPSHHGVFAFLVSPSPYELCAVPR
assay.notes: qHTS Assay for Inhibitors and Substrates of Cytochrome P450 2D6 (AID 891); note: nearly all actives have a fitted effect of over 60% in size
condition.summary: recombinant CYP2D6, luciferin-ME EGE luminescence; series mostly up to 57.1 µM
Results filed as inconclusive are left out. Active and inactive are the calls of the source. The call rests on the fitted dose curve; in most records, active means well fitted inhibition curve with a large enough effect; inconclusive means small, poorly fitted or top-dose-only effect; inactive means no such curve, though single readings can be large or run the other way.
Labels: active, inactive

* O=c1c(O)c(-c2ccc(O)cc2)oc2cc(O)cc(O)c12 | active
* O=C1C[C@@H](c2ccc(O)cc2)Oc2cc(O)cc(O)c21 | inactive
* CC(=O)CCCCn1c(=O)c2c(ncn2C)n(C)c1=O | inactive
* O=c1c(-c2ccc(O)cc2)coc2cc(O)ccc12 | inactive
* CCCCC1C(=O)N(c2ccccc2)N(c2ccccc2)C1=O | inactive

###

assay.notes: qHTS of pediatric cancer cell lines to identify multiple opportunities for drug repurposing: Primary screen for SK-N-SH cells (AID 1347098); note: nearly all actives have a fitted effect of over 65% in size; note: potency is the fitted concentration of half-maximal effect
condition.summary: SK-N-SH viability, CellTiter-Glo luminescence, 48 h; series mostly up to 57 µM
Records with an inconclusive call do not appear. Active and inactive are the calls of the source. Calls come from the whole dose curve; as a rule, active = well fitted cell-killing curve with a large enough effect; inconclusive = small, poorly fitted or top-dose-only effect; inactive = no such curve, though single readings can be large or run the other way.
measurement.name: Potency

• CCCCC1C(=O)N(c2ccccc2)N(c2ccccc2)C1=O = inactive
• O=C1NC(=O)C(c2ccccc2)(c2ccccc2)N1 = inactive
• NCCS = inactive
• NS(=O)(=O)c1ccc(NC2=CC(=O)c3ccccc3C2=O)cc1 = 30.4 µM (active)
• c1ccc2c(Cc3c[nH]c4ccccc34)c[nH]c2c1 = 9.61 µM (active)
• CC(C)NCC(O)COc1cccc2[nH]ccc12 (stereo unspecified) = inactive
• C[N+]1(C)[C@@H]2CC(OC(=O)[C@H](CO)c3ccccc3)C[C@H]1[C@H]1O[C@@H]12 (stereo partly specified) = inactive
• O=C(CCc1ccc(O)cc1)c1c(O)cc(O)cc1O[C@@H]1O[C@H](CO)[C@H](O)[C@H](O)[C@H]1O = inactive
• CC(C)OC(=O)C(C)(C)Oc1ccc(C(=O)c2ccc(Cl)cc2)cc1 = inactive
• O=C1NC(=O)C(=Cc2ccc3c(c2)OC(F)(F)O3)S1 = 12.1 µM (active)
• CN(C)CCC(c1ccccc1)c1ccccn1 (stereo unspecified) = inactive

###

System: Zika virus NS2B-NS3 protease (linked construct)
assay.notes: Primary screen NINDS Rhodamine qHTS for Zika virus inhibitors (AID 1347160); note: nearly all actives have a fitted effect of over 55% in size
condition.summary: purified NS2B-NS3 protease, Rhodamine110 substrate fluorescence; series mostly up to 57.1 µM
Records with an inconclusive call do not appear. Active and inactive are the calls of the source. Calls follow the shape of the dose curve; as a rule, active = well fitted inhibition curve with a large enough effect; inconclusive = small, poorly fitted or top-dose-only effect; inactive = no such curve, though single readings can be large or run the other way.
Labels: active, inactive

- COCCOC(=O)C1=C(C)NC2=C(C(=O)CC(c3ccccc3OC)C2)C1c1cccc(O)c1 (configuration not stated): inactive
- CC[C@]1(O)C[C@@H]2CN(CCc3c([nH]c4ccccc34)[C@@](C(=O)OC)(c3cc4c(cc3OC)N(C)[C@H]3[C@@](O)(C(=O)OC)[C@H](OC(C)=O)[C@]5(CC)C=CCN6CC[C@]43[C@@H]65)C2)C1: inactive
- C=C1C(=O)[C@@]23C(CC[C@@H]1[C@H]2O)[C@@]12CO[C@]3(O)[C@@H](O)[C@@H]1C(C)(C)CC[C@@H]2O (some centres not stated): inactive
- COc1ccc2c(Oc3ccc(NC(=O)c4c(C)n(CC(C)(C)O)n(-c5ccccc5)c4=O)nc3)ccnc2c1: inactive
- O=C(NC1CCOCC1)c1ccc(-c2cc(-c3cn[nH]c3-c3ccccn3)ccn2)cc1: inactive
- CC1(C)CCC(CN2CCN(c3ccc(C(=O)NS(=O)(=O)c4ccc(NCC5CCOCC5)c([N+](=O)[O-])c4)c(Oc4cnc5[nH]ccc5c4)c3)CC2)=C(c2ccc(Cl)cc2)C1: active
- COc1ncc(-c2ccc3nccc(-c4ccnnc4)c3c2)cc1NS(=O)(=O)c1ccc(F)cc1F: inactive

###

Test system: CRL-7250
assay.notes: Cytotoxic Profiling of Annotated Libraries Using Quantitative High-Throughput Screening (AID 1296008); note: nearly all actives have a fitted effect of over 60% in size
condition.summary: Five cell lines viability, CellTiter-Glo ATP luminescence, 48-72 h
Inconclusive results are not listed. The source made the active and inactive calls. Calls come from the whole dose curve; as a rule, active = well fitted inhibition curve with a large enough effect; inconclusive = small, poorly fitted or top-dose-only effect; inactive = flat fitted curve, though single readings scatter.
Labels: yes = active, no = inactive

* NC1CCC(Nc2nc(Nc3ccc(C(=O)N4CCCCC4)cc3)c3ncn(-c4cccc(F)c4)c3n2)CC1 (centres undefined) | no
* Cc1c(NC(=O)c2ccc(C(C)(C)C)cc2)cccc1-c1cn(C)c(=O)c(Nc2ccc(C(=O)N3CCOCC3)cc2)n1 | no
* CO[C@@H](C(=O)N1Cc2[nH]nc(NC(=O)c3ccc(N4CCN(C)CC4)cc3)c2C1)c1ccccc1 | yes
* Nc1ncnc2c1ncn2[C@@H]1O[C@@H](CO)[C@H](O)[C@H]1O | no
* CC(C)(C)COc1ccc(-n2cc(C(=O)O)cn2)cc1C#N | no
* COc1cc(O)c2c(c1)C(=O)c1cc(C)cc(O)c1C2=O | no
* CC(C)(C)c1ccc(C(O)CCCN2CCC(C(O)(c3ccccc3)c3ccccc3)CC2)cc1 (centres undefined) | no
* CCC(=O)O[C@]1(C(=O)CO)CC[C@H]2[C@@H]3CCC4=CC(=O)CC[C@]4(C)[C@@H]3CC[C@@]21C | yes
* O=C1NC(=O)C(c2ccccc2)(c2ccccc2)N1 | no
* COc1ccc(-c2cc(=O)c3c(O)cc(O)cc3o2)cc1O | no
* CCOc1ccc(Nc2nc(-c3c(C)nc4ccccn34)cs2)cc1 | yes
* Cc1cccc(C)c1OCC(C)N (centres undefined) | no
* CC[C@H]1OC(=O)[C@H](C)[C@@H](O[C@H]2C[C@@](C)(OC)[C@@H](O)[C@H](C)O2)[C@H](C)[C@@H](O[C@@H]2O[C@H](C)C[C@H](N(C)C)[C@@H]2O)[C@](C)(O)C[C@@H](C)CN(C)[C@H](C)[C@@H](O)[C@]1(C)O | no
* CO[C@H]1C=CC=C(C)C(=O)NC2=CC(=O)C(NCCN(C)C)=C(C[C@@H](C)C[C@H](OC)[C@@H](O)[C@@H](C)C=C(C)[C@@H]1OC(N)=O)C2=O | yes
* CCCCCCCCCCCC1=C(O)C(=O)C=C(O)C1=O | no
* COc1cc(Nc2ncc(F)c(Nc3ccc4c(n3)NC(=O)C(C)(C)O4)n2)cc(OC)c1OC | yes
* O=C1NCC2(CCN(CCc3ccccc3)CC2)O1 | no
* CC=CCC=CCCC(=O)[C@H]1O[C@@H]1C(N)=O | no
* NC(=O)c1ccc2nc(-c3ccc(Oc4ccc(Cl)cc4)cc3)[nH]c2c1 | no

Hello, the source for this data is PubChem BioAssay (NCATS), in case you need it.
